Taken from ChEMBL document CHEMBL1201862.

tested on: EKVX; assay: NCI tumour cell line growth inhibition, 48 h
The source made the active and inactive calls. Rule as the data show it: active = GI50 up to about 1.1 µM and inactive = higher.
Listing of entries alongside the reported GI50.
QUANTITY KIND: GI50

| COMPOUND | VAL |
| --- | --- |
| COc1ccc(NC(=O)NS(=O)(=O)c2ccc(C)cc2)nn1 | > 100 µM (inactive) |
| NC(=S)NN=Cc1ccccc1OCc1cccc(COc2ccccc2C=NNC(N)=S)n1 | 10 µM (inactive) |
| N#CC1CCN2N=C(c3ccccc3)SC12c1ccccc1 (configuration not stated) | 18.8 µM (inactive) |
| CCN(CC)c1ccc(/N=C2/C=CC(=C(C#N)C#N)c3ccccc32)c(C)c1 | 3.21 µM (inactive) |
| CCC(C)C(N)C(=O)N/N=C\c1c2c(nc3ccccc13)-c1cc3c(c(=O)n1C2)COC(=O)[C@]3(O)CC (some centres not stated) | 1.89 µM (inactive) |
| COc1ccc(-c2nc(N)c3ncn(C4OC(CO)C(O)C4O)c3n2)cc1 (configuration not stated) | > 100 µM (inactive) |
| Cc1ccc(S(=O)(=O)SCc2ccccc2)cc1 | 43.8 µM (inactive) |
| CC(C)(C)c1cc(C2=NNC(c3ccccc3)C2)cc(C(C)(C)C)c1O (configuration not stated) | 16.1 µM (inactive) |
| COC1=CC(=O)C=C(OC)C1=O | 5.69 µM (inactive) |
| NC(=O)c1cc(N2CC2)c([N+](=O)[O-])cc1[N+](=O)[O-] | > 100 µM (inactive) |
| CC(C)=C=CP(=O)(O)c1ccccc1 | > 100 µM (inactive) |
| C=CCN(N=O)C(=O)N(CCCC(NC(C)=O)C(=O)NCc1ccccc1)Cc1ccccc1 (configuration not stated) | 58.2 µM (inactive) |
| CN(C)c1c(C2OC(CO)C(O)C2O)c(=O)c1=O (configuration not stated) | > 100 µM (inactive) |
| CCSSCS(C)(=O)=O | 55.1 µM (inactive) |
| NC(=S)N1N=C2c3ccccc3CC[C@H]2[C@@H]1c1ccc(Cl)cc1 | 37.8 µM (inactive) |
| Cc1ccc(C)c(N2C(=O)C(=O)C(c3nc4ccccc4s3)C(=O)C2=O)c1 | > 100 µM (inactive) |
| Cc1cc(NC(=O)NC(=O)c2ccccc2N(C)C)ccc1Oc1ncc(Br)cn1 | 1.96 µM (inactive) |
| S=c1oc(CCCCCCCCc2nn(CNc3ccc(Cl)cc3)c(=S)o2)nn1CNc1ccc(Cl)cc1 | > 100 µM (inactive) |
| CCc1cccc(CC)c1Nc1nc2c(s1)C(=O)c1ccccc1C2=O | 16.3 µM (inactive) |
| COc1ccc(C(=O)/C(Br)=C/C(=O)O)cc1 | 37.8 µM (inactive) |
| COc1cc(N(CCC#N)CCC#N)ccc1C(/N=N/c1cccc(C)c1)=N\NC(=O)c1ccc(C)cc1 | 87.7 µM (inactive) |
| NC(=S)N/N=C(\C(=O)Nc1cccc([N+](=O)[O-])c1)c1nc2ccc([N+](=O)[O-])cc2nc1O | 54.3 µM (inactive) |

====

test system: SNB-75; assay: NCI tumour cell line growth inhibition, 48 h
Calls of active or inactive are those of the source. Cut-off read from the data, not from the text of the source: active = GI50 up to about 1.1 µM and inactive = higher.

| COMPOUND | STUDY SYSTEM | GI50 |
| --- | --- | --- |
| C=CCOc1ccc(C(=N/NC(=O)c2ccccc2)/N=N/c2ccccc2)cc1OC | SNB-75 | > 100 µM (inactive) |
| CCOC(=O)c1c2c(n(-c3ccc(C)cc3)c1C)-c1ccccc1C(=O)C2(C(=O)OCC)C(=O)OCC | SNB-75 | 28.6 µM (inactive) |
| COc1cc(C2C(C(=O)O)=C(CO)Oc3cc4c(cc32)OCO4)cc(OC)c1OC (stereo not given) | SNB-75 | 40.7 µM (inactive) |
| CN(C)c1ccc(N2C(=S)SC(=N\c3ccccc3)/C2=N/c2ccccc2)cc1 | SNB-75 | > 100 µM (inactive) |
| CC(=O)C(C(=O)C(=O)Nc1cc(Cl)c(Cl)cc1Cl)c1csc(N)n1 (stereo not given) | SNB-75 | > 100 µM (inactive) |
